Source of measurements: ChEMBL document CHEMBL1201862

# System: HL-60
# PROTOCOL DETAILS: NCI tumour cell line growth inhibition, 48 h
Calls of active or inactive are those of the source. Rule as the data show it: active = GI50 up to about 1.1 µM and inactive = higher.
Parameter call: string, one of YES = active, NO = inactive

INPUT: How did this test come out for CCC(=O)C(C)C1=Nc2nnc(CCCCCCCc3nnc4n3C(=O)C(C(C)C(=O)CC)=N4)n2C1=O (stereo not given) ?
OUTPUT: NO

INPUT: How did this test come out for `O=S(=O)(N1CCCCN(S(=O)(=O)C(F)(F)F)CCCN(S(=O)(=O)C(F)(F)F)CCCCN(S(=O)(=O)C(F)(F)F)CCCN(S(=O)(=O)C(F)(F)F)CCCCN(S(=O)(=O)C(F)(F)F)CCCN(S(=O)(=O)C(F)(F)F)CCCCN(S(=O)(=O)C(F)(F)F)CCC1)C(F)(F)F` ?
OUTPUT: NO

INPUT: How did this test come out for CCCCCCCCOCC(O)COC (stereo not given) ?
OUTPUT: NO

INPUT: How did this test come out for N=C1NC(=O)N2CC12 (stereo not given) [IMEXON] ?
OUTPUT: NO

INPUT: How did this test come out for `O=C1C=C(OCCCl)C(=O)c2c(O)ccc(O)c21` ?
OUTPUT: YES

INPUT: How did this test come out for `O=c1cc(O)c1=O` ?
OUTPUT: NO

INPUT: How did this test come out for `Cc1cc(C)nc(NS(=O)(=O)c2ccc(NC(=O)c3cccc4c(Nc5ccc(S(=O)(=O)Nc6cc(C)on6)cc5)c5ccccc5nc34)cc2)n1` ?
OUTPUT: NO

INPUT: How did this test come out for `CC1(Br)S(=O)(=O)OCCOS1(=O)=O` ?
OUTPUT: NO

INPUT: How did this test come out for CC(C)C1=C(O)C(=O)C2=C(C1=O)C(OC=O)C(O)C1C(C)(C)CCCC21C (stereo not given) ?
OUTPUT: NO

INPUT: How did this test come out for `N#CC(C#N)=CSc1ccccc1` ?
OUTPUT: NO
